assay: Maximum tolerated dose (MTD) study in athymic mice; conditions: female, athymic nu/nu, mouse, in vivo, iv, MTD, athymic nu/nu mice, q3d×3, iv
parameterMeasured: MTD at 30 day

(Q) Which value of MTD at 30 day has been reported for [2H]C([2H])([2H])C(OC(=O)N[C@@H](c1ccccc1)[C@@H](O)C(=O)O[C@H]1C[C@@]2(O)[C@@H](OC(=O)c3ccccc3)C3C(C)(C(=O)[C@H](O)C(=C1C)C2(C)C)[C@@H](O)CC1OC[C@]13OC(C)=O)(C([2H])([2H])[2H])C([2H])([2H])[2H] (stereo partly shown) [d9-Docetaxel] in the records?
(A) ~15 mg/kg

The values you see were collected from patent US20130338216A1.
